Data provenance is the supplement of paper PMC10981050.

test system: MOLM14; assay: cell viability relative to vehicle control; higher = less cytotoxic; details: 10 µM; SRSF2 genotype: SRSF2 wt/wt;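 also: after 48 h exposure read by CellTiter-Glo luminescence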
Provide the recorded cell viability for the entries that follow.
Could you give the number and then its unit, please?

// assay MOLM14, entry CC(=O)Oc1c(C)c(C)c2c(c1C)CCC(C)(CCC[C@H](C)CCC[C@H](C)CCCC(C)C)O2 (some centres undefined) [Vitamin E Acetate] , cell viability value = 106%

Item: O=C(c1ccc(Nc2nccc(-c3cc4ccccc4s3)n2)cc1)N1CCC(N2CCCC2)CC1 | System: MOLM14 | cell viability: 0.3%

I looked up Cc1ccc(S(=O)(=O)n2c(N)nc3ccccc32)cc1 and its cell viability for MOLM14 was 104%

Observed cell viability on MOLM14, entry OC1CCC(Nc2ncc3nc(Nc4c(F)cc(F)cc4F)n([C@H]4CCOC4)c3n2)CC1 (some centres undefined) , equals 109%

---

system: OCI-AML2; assay: cell viability relative to vehicle control; higher = less cytotoxic; conditions: 10 µM; SRSF2 genotype: P95H/wt
Where a name gives a salt, the structure may show the parent alone.
Consider the following molecules; for each one, report its cell viability.

Sample COc1cc2c3cc1Oc1c(OC)c(OC)cc4c1[C@@H](Cc1ccc(O)c(c1)Oc1ccc(cc1)C[C@@H]3N(C)CC2)N(C)CC4 [Berbamine (dihydrochloride)] ; cell viability observed: 57.1%

Briefly, cell viability measured for O=C(O)CSc1cc(NS(=O)(=O)c2ccc(Br)cc2)c2ccccc2c1O : 97.9%

CS(=O)(=O)N1CCN(Cc2cc3nc(-c4cccc5[nH]ncc45)nc(N4CCOCC4)c3s2)CC1 has a reported cell viability of 48.5%

Lab note: C=C1CC[C@H]2O[C@]2(C)CC[C@@H]2[C@@H]1CC2(C)C [Caryophyllene oxide] gave cell viability of 112%

Form field cell viability, entry O=C(NO)c1ccc(CC(=O)N(CCO)c2ccccc2)cc1 : 77.2%

In plain terms, CCCN1CCCC[C@H]1C(=O)Nc1c(C)cccc1C [Ropivacaine HCl] has a documented cell viability of 98%

cell viability recorded for this molecule, C[C@H]1[C@H](C)CC[C@]2(C(=O)O[C@@H]3O[C@H](CO[C@@H]4O[C@H](CO)[C@@H](O[C@@H]5O[C@@H](C)[C@H](O)[C@@H](O)[C@H]5O)[C@H](O)[C@H]4O)[C@@H](O)[C@H](O)[C@H]3O)CC[C@]3(C)C(=CC[C@@H]4[C@@]5(C)C[C@@H](O)[C@H](O)[C@@](C)(CO)[C@@H]5[C@H](O)C[C@]43C)[C@H]12 [Madecassoside] , is 99.9%

---

tested on: OCI-AML2; assay: cell viability relative to vehicle control; higher = less cytotoxic; details: 10 µM; SRSF2 genotype: wt/wt
Observed Property: cell viability (%)
Write the number in % without appending the unit.

Lab book: cell viability of CC12CCC(C1)C(C)(C)C2O (configuration not stated) [Fenchyl Alcohol] noted as 89.1

Per the record, CCCN[C@H]1CCc2nc(N)sc2C1 [Pramipexole (Mirapex)] has cell viability of 87.8

Item: CC(=O)OCC(CCn1cnc2cnc(N)nc21)COC(C)=O [Famciclovir (Famvir)] | cell viability: 98

Just so you know, measured cell viability for O=C(Nc1nccs1)C(c1cc(F)ccc1O)N1Cc2ccccc2C1=O (configuration not stated) came out at 100

The recorded cell viability for CCc1c(Cl)c(O)c(Cl)c(O)c1C(=O)O[C@H]1[C@H](O)[C@H](OC)[C@H](OC/C2=C\C=C\C[C@H](O)/C(C)=C/[C@H](CC)[C@@H](O[C@@H]3OC(C)(C)[C@@H](OC(=O)C(C)C)[C@H](O)[C@@H]3O)/C(C)=C/C(C)=C/C[C@@H]([C@@H](C)O)OC2=O)O[C@@H]1C [Fidaxomicin] is 100

Noted for Cc1onc(-c2c(Cl)cccc2Cl)c1C(=O)N[C@@H]1C(=O)N2[C@@H]1SC(C)(C)[C@@H]2C(=O)O [Dicloxacillin Sodium] : its cell viability reads 109

Short answer for Cc1cccc(Nc2cc(Cl)nc(SCC(=O)O)n2)c1C : cell viability was 94.4

---

Please respond with reported cell viability for every item in the list.
tested on: MARIMO; assay: cell viability relative to vehicle control; higher = less cytotoxic; conditions: 10 µM; SRSF2 genotype: SRSF2 P95H/wt
Enter your answer as a number in %; do not include the unit.

# compound FC(F)(F)Oc1ccc2nc(-c3ccc(OCCOCCOc4ccc(-c5nc6ccc(OC(F)(F)F)cc6[nH]5)nc4)cn3)[nH]c2c1 ; its cell viability = 26.9

What the record says about CN(C)CCSSCCNC(=O)C1CCN(C(=O)CSc2ccc(Cl)cc2)CC1 : cell viability is 68

The compound NCCCCCN showed cell viability equal to 100

Record summary for Cc1ccccc1C(=O)Nc1ccc(C(=O)N2CCCC(N(C)C)c3ccccc32)cc1 (stereo not given) : reported cell viability = 88.9

Lab book: cell viability of C[C@H](O)[C@H](O)[C@@H](O)[C@@H](O)C=O [L (+)-Rhamnose Monohydrate] noted as 102

---

system: MARIMO; experiment: cell viability relative to vehicle control; higher = less cytotoxic; details: 10 µM; SRSF2 genotype: SRSF2 P95H/wt
Counter-ions that a name gives are not always drawn.
Give measured cell viability for each item. Keep answers brief.
Give the number; % is assumed, so skip it.

The molecule listed as CC(C)=CCc1cc2c(cc1O)oc(=O)c1c3ccc(O)cc3oc21 shows cell viability equal to 98

For record N=C(N)NC(=N)NCCc1ccccc1 [Phenformin hydrochloride] the listed cell viability is 93.2

Value of measured cell viability for the entry CC(C)N(CCCCOCC(=O)NS(C)(=O)=O)c1cnc(-c2ccccc2)c(-c2ccccc2)n1 : 97

Summary for this molecule, [I-].[K+] [Potassium iodide] : cell viability is 107

Recorded result, CCOc1nc2cccc(C(=O)OC(C)OC(=O)OC3CCCCC3)c2n1Cc1ccc(-c2ccccc2-c2nn[nH]n2)cc1 (stereo not drawn) , cell viability: 98.8

Reported cell viability ( C[C@H]1COC2(CCN(c3nc(=O)c4cc(C(F)(F)F)cc([N+](=O)[O-])c4s3)CC2)O1 (racemic) [BTZ043 racemate] ) = 82.4

Reported cell viability ( COc1cc2c(c(O)c1OC)-c1c(cc(OC)c(OC)c1OC)C[C@@H](C)[C@@H](C)C2 ) = 100

Lab note: CCOc1cc(C(C)(C)C)ccc1C1=N[C@@](C)(c2ccc(Cl)cc2)[C@@](C)(c2ccc(Cl)cc2)N1C(=O)N1CCN(CCCS(C)(=O)=O)CC1 gave cell viability of 91.2

---

tested on: OCI-AML2; experiment: cell viability relative to vehicle control; higher = less cytotoxic; conditions: 10 µM; SRSF2 genotype: P95H/wt
Structures can show the parent of a compound that is named as a salt.
Observed Property: cell viability
# number then unit; no other words

Short answer for Nc1ccc(S(=O)(=O)Nc2cncc(Cl)n2)cc1 [Sulfalozine sodium] : cell viability was 107%

The molecule listed as CN(C)C(=O)Nc1cccc(-c2ccc(N(C)C)cc2)c1 has a reported cell viability of 92.7%

// recorded cell viability for O=C(O)CCCC[C@@H]1SC[C@@H]2NC(=O)N[C@@H]21 : 102%

Documented cell viability of CNCC[C@@H](Oc1ccccc1C)c1ccccc1 [Atomoxetine HCl] : 115%

GET /value?item= CN(C)CCCNC(=O)c1ccc(-c2cc(O)c3ncccc3c2)cc1 &field=cell viability returns 33%

Entry O=C(O)COc1ccc(Br)cc1C=C1SC(=S)N(Cc2cccnc2)C1=O [Skp2 inhibitor C1 (SKPin C1)] — recorded cell viability = 3.65%

get_value(item= C[C@]1(O)C[C@@H](c2nc(-c3ccc4ccc(-c5ccccc5)nc4c3)c3c(N)nccn32)C1 , readout=cell viability) returns 29.6%

The recorded cell viability for OCCOCCN1CCN(C(c2ccccc2)c2ccc(Cl)cc2)CC1 (stereo not drawn) [Hydroxyzine pamoate] is 87.9%

Record Oc1ccc2c(c1)OC[C@]1(O)Cc3cc(O)c(O)cc3[C@H]21 . Reported cell viability: 73.2%

Documented cell viability of CCCCCCCCCCCCc1ccc(S(=O)(=O)Nc2nncs2)cc1 : 98.7%

Lookup result for CC[C@@H]1C(=O)N(C)c2cnc(Nc3ccc(C(=O)N[C@H]4CC[C@H](N5CCN(CC6CC6)CC5)CC4)cc3OC)nc2N1C(C)C ; measured cell viability: 4.52%

Entry O=c1sn(-c2cccc3ccccc23)c(=O)n1Cc1ccccc1 , cell viability reported as 54.7%

Entry OCCOCCN1CCN(C(c2ccccc2)c2ccc(Cl)cc2)CC1 (stereo not drawn) [Hydroxyzine 2HCl] — recorded cell viability = 95.4%

# cell viability (molecule: Nc1[nH]cnc2ncnc1-2 [Adenine hydrochloride] ) is 114%

Just so you know, measured cell viability for Cn1cc(C2=C(c3cn(CCCSC(=N)N)c4ccccc34)C(=O)NC2=O)c2ccccc21 [Ro 31-8220 Mesylate] came out at 0.07%

Note to self: cell viability recorded for O=C(CCCCCCC(=O)Nc1ccccc1)NO [Vorinostat (SAHA, MK0683)] was 1.15%

What the record says about Nc1ncnc2c1c(I)cn2C1OC(CO)C(O)C1O (stereo not drawn) : cell viability is 2.92%

Per the records, this molecule ( Cc1ccc(NC(=O)c2ccc(CN3CCN(C)CC3)cc2)cc1Nc1nccc(-c2cccnc2)n1 [Imatinib Mesylate (STI571)] ) has cell viability equal to 82.3%
